Target: Mitogen-activated protein kinase kinase kinase kinase 2 (Homo sapiens) (UniProt Q12851)
Sequence (whole entry): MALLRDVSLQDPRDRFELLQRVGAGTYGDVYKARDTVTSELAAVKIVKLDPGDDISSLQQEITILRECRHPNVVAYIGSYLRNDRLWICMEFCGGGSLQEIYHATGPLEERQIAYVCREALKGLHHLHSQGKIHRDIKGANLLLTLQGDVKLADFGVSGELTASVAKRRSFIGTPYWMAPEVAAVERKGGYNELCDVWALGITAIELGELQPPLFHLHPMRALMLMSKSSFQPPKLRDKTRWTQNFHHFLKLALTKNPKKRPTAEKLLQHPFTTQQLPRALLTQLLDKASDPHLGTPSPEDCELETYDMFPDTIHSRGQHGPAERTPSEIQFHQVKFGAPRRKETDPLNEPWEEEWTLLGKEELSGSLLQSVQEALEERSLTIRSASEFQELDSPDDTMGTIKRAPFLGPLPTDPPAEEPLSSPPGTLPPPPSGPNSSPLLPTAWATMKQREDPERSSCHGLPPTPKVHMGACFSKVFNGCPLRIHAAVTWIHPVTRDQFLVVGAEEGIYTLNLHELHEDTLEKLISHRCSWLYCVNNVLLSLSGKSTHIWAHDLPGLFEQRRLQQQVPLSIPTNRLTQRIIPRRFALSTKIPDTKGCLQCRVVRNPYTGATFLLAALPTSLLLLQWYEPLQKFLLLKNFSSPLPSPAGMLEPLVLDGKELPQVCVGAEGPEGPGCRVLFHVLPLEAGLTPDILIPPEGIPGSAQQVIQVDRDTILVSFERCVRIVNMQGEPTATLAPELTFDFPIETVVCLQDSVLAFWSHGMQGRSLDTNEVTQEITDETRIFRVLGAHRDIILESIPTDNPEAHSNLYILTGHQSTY
Details: at 1 µM
Would you please tag the item Fulfilled when its residual activity is 90% or above, and Not fulfilled when it is below?

# Smiles Notation, Tested On, Class
measured = [
    ("COc1cc2ncnc(Nc3ccc(OCc4ccccc4)cc3)c2cc1OC", "Mitogen-activated protein kinase kinase kinase kinase 2 (Homo sapiens) (UniProt Q12851)", "Fulfilled"),
    ("CC(C)[C@H](CO)Nc1nc(Nc2cccc(Cl)c2)c2ncn(C(C)C)c2n1", "Mitogen-activated protein kinase kinase kinase kinase 2 (Homo sapiens) (UniProt Q12851)", "Not fulfilled"),
    ("O=c1[nH]c2ccccc2n1C1CCN(Cc2ccc(-c3nc4cc5[nH]cnc5cc4nc3-c3ccccc3)cc2)CC1", "Mitogen-activated protein kinase kinase kinase kinase 2 (Homo sapiens) (UniProt Q12851)", "Fulfilled"),
    ("c1cc(-c2cnn3cc(-c4ccc(OCCN5CCCCC5)cc4)cnc23)ccn1", "Mitogen-activated protein kinase kinase kinase kinase 2 (Homo sapiens) (UniProt Q12851)", "Not fulfilled"),
    ("COC(=O)[C@@]1(O)C[C@H]2O[C@]1(C)n1c3ccccc3c3c4c(c5c6ccccc6n2c5c31)C(=O)NC4", "Mitogen-activated protein kinase kinase kinase kinase 2 (Homo sapiens) (UniProt Q12851)", "Not fulfilled"),
    ("COc1cc(OC)c(/C=C2\\C(=O)Nc3ccccc32)c(OC)c1", "Mitogen-activated protein kinase kinase kinase kinase 2 (Homo sapiens) (UniProt Q12851)", "Fulfilled"),
    ("COc1ccc2c(c1)/C(=C/c1cnc[nH]1)C(=O)N2", "Mitogen-activated protein kinase kinase kinase kinase 2 (Homo sapiens) (UniProt Q12851)", "Not fulfilled"),
    ("O=C1NC(=O)c2c1c1c3ccccc3n3c1c1c2c2ccccc2n1C1CCC3O1", "Mitogen-activated protein kinase kinase kinase kinase 2 (Homo sapiens) (UniProt Q12851)", "Not fulfilled"),
]

Sourced from ChEMBL document CHEMBL2218924
